Target: T1, human GIP receptor (human) (UniProt P48546)
T1 sequence (looked up): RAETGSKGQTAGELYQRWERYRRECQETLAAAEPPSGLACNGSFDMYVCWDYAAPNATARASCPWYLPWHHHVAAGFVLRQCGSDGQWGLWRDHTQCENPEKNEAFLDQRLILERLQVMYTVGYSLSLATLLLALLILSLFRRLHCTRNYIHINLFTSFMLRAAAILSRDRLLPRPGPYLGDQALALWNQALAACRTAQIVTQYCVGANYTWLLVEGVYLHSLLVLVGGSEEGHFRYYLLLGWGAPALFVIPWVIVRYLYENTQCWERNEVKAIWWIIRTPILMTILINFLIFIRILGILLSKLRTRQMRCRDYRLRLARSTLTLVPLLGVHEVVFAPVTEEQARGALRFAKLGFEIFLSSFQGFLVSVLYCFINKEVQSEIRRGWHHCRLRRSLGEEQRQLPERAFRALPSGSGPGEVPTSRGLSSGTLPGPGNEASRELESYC
Test: cell-based or functional assay
Non-standard residues stand in square brackets, D forms with d. No end group written: not given here. Phe(4-CN) = N#Cc1ccc(C[C@H](N)C(=O)O)cc1; αMePhe(2-F) = C[C@](N)(Cc1ccccc1F)C(=O)O; Aib = CC(C)(N)C(=O)O

{"binder": "YXQGTFTSDXSQXLDXKAQXAFIQXLIEGGPSSGAPPPSGSEE (Aib, 4Pal, αMeL, Orn, Me4Pal, αMeY; acylated Lys; C-terminal amide; synthetic construct; SITE 2: note = 2-Aminoisobutyric Acid; SITE 10: note = 3-(4-Pyridyl)-L-alanine; SITE 13: note = alpha-methyl-leucine; SITE 16: note = L-ornithine; SITE 17: note = Lysine is chemically modified through conjugation of the epsilon-amino group of the Lysine side chain with D-Glutami) [Example 1072]", "Relative cAMP EC50 / pM": 157}
{"binder": "Y[Aib]QGT[αMePhe(2-F)]TSD[Phe(4-CN)]SILLDKQAQKAFIEYLLEGGPSSGEPPPSAG-NH2 (not fully specified (residue 20)) [Example 350]", "Relative cAMP EC50 / pM": 106}
{"binder": "YXQGTXTSDXXIXLDXKAQXNFIEXLQEGGPSSGEPPPEGTGE (synthetic construct; SITE 2: note = 2-Aminoisobutyric Acid; SITE 6: note = alpha-methyl-2-fluoro-L-phenylalanine; SITE 10: note = 3-(4-Pyridyl)-L-alanine; SITE 11: note = alpha-methyl-L-serine; SITE 13: note = alpha-methyl-leucine; SITE 16: note = L-ornithine; SITE 17: note = Lysine is chemically mo) [Example 527]", "Relative cAMP EC50 / pM": 38.6}
